# SYSTEM TESTED: RNase H (Escherichia coli)
# Sequence (P0A7Y4 whole entry): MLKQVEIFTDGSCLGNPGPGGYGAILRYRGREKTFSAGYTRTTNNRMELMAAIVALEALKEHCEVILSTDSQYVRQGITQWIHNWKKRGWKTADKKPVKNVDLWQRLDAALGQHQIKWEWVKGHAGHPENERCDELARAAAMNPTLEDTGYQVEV
ASSAY READOUT: IC50

According to the records, this compound NC[C@H]1O[C@H](O[C@H]2[C@H](O)[C@@H](O[C@H]3O[C@H](CO)[C@@H](O)[C@H](N)[C@H]3O)[C@H](N)C[C@@H]2N)[C@H](O)[C@@H](O)[C@@H]1O [kanamycin] displays IC50 of 30.6 mM

Origin of the recorded values: patent US20220026429A1
